- Test system: U-937/GTB
- protocol: Cytotoxicity against human U937/GTB cells after 72 hrs by fluorometric microculture cytotoxicity assay
- Format: functional, cell-based
property name: pIC50
In plain terms, pIC50 is the concentration in mol/L turned into minus its base-10 logarithm.

Hello, I am looking for reported pIC50 with U-937/GTB for `COc1cccc2c1C(=O)c1c(O)c3c(c(O)c1C2=O)C[C@@](O)(C(=O)CO)C[C@@H]3O[C@H]1C[C@H](N)[C@H](O)[C@H](C)O1` . Could you help?
6.80
